# Protocol Text: soluble fraction after stress (log2 fold change); higher = more stays soluble; pooled small domains, quantitative proteomics
# Experimental Setup: stress: 50 degC
Measured Property: soluble fraction (log2)
Answer with a bare number; do not write a unit.

# example entries with known answers
                                 seq_string  assay_result
0  HMSDPVDDLLLRISQQAGVARGQLVAELNMLVQDRFGGNLRHEAAAVLMAKRYGIEFRDLLPALREHLVKN      -0.00206
1  HMLMTGSLQTKHGKYYVVVRIPDGLGNTKAKWINTGIPTDGNNKRKAQQRRIEILTELEENKD         -1.84
2  HMTKDEFLTTLRTLIQDMPPEDRRDVMNYYTEYFEDAGPEREQEVLRQLGSPEQVAREVLGG       -0.0225
3  HMSDESALIAAIEKAIAAQPETAEKVRNGHLPAAGALIGSVMKETKGQADAARVRELLLGLLGQ         0.139

*Q* # return recorded soluble fraction (log2) for input HMLSAEAAAARTAISTLSEDQQRVLGLSIQRGLVHEQIARATGLPLGTVKTHIRRGLIKVREALEAQAAG
*A* -0.00728

*Q* # return recorded soluble fraction (log2) for input HMPEITPAMIKALLSSLSEELAFASVTKVYAVLHNLFKAALLDDTIDRNPMDKVPRPRKSKDAAL
*A* -0.38

---

# Protocol Text: soluble fraction after stress (log2 fold change); higher = more stays soluble; pooled small domains, quantitative proteomics
# Experimental Setup: stress: 50 degC
Reported soluble fraction (log2) values follow for various sequences
Answer with a bare number; do not write a unit.

# example entries with known answers
>>> print(df.to_string())
                                 seq_string  assay_result
0  HMDEEAIELTQEVMKLPPKQREVILLYYYHGLTGKEIAKALGISGAAVSKRLKQAKNQLHFALK       -0.0921
1  HMDNQSIVRINDGDGAWRQRLGEHFGHLPRDRKRGEIVLQVDAADWRWLQTQGYAPRFDAALSAQLQTTL        -0.404
2  HMEVMYFIYQQEEPMRIDKFLVNEMEDFSRNSIQIYIKDNHVLVNDKVVKANYILKKGDAISITIPDPI        -0.404

*Q* # return recorded soluble fraction (log2) for input HMLHMKAALGELMSIPGMRSELAGTLFDRGYTSLAQLRAATLDDLERVNGLERADARRIHDFLRKS
*A* -0.0753

*Q* # return recorded soluble fraction (log2) for input HMKYEFEFPYWSNKEAKHMIVTINYPNGTRATASIQDNDGSNPDYKRIMEEFGEEQIDANTEEGLKRR
*A* -0.0595

*Q* # return recorded soluble fraction (log2) for input HMTSPLQIHPNPATKHIELGLESPEVVLIKDINGKTVYQELVAPNQYIDIEHLKNGIYFIESKNKFGKLIK
*A* 0.169

*Q* # return recorded soluble fraction (log2) for input HMNAKNPRALAIQYVFKMQMGNFLHAKTDNQQQEQERIMTLFNEENKNTILPRWGKELLSYINRN
*A* -0.695

*Q* # return recorded soluble fraction (log2) for input HMNLLDYDFFEKMSSKEQEEIVEKVYIDFLNKSTGTNSPFYLKLFEKGKKSYIVNWLNENNF
*A* -1.44

*Q* # return recorded soluble fraction (log2) for input HMANSDEEVLNKISTKAPTFNELINKIKEFDDTKEINDIWLDVYRYYITDEEYKEIAKKVITGLTYTNQ
*A* -0.177

*Q* # return recorded soluble fraction (log2) for input HMRQPRGQRVTVREASSLLPFLFAHLTDRSRSAVKSLLRHGQIWVNGRVTTHFDMPLRPGDTVLISHERG
*A* -0.347

*Q* # return recorded soluble fraction (log2) for input HMISEWDAAYSYAKQYYEENGHLFVPKKYVTSEGAALGKWIWEQRDSYLGLSSYKISDKKIEMLEDIGMFW
*A* -4.02

*Q* # return recorded soluble fraction (log2) for input HMHKREKSFFETIYDDIPGIGKKRRVQLLSAYPTLDSLKSVTLEELKQIVPEESAKLILEKRDSR
*A* 0.0407

*Q* # return recorded soluble fraction (log2) for input HMIERLVVSPAAGVFTKKMSVENNTRIDVGHVLGHVGETEVRSPFAGILQNYIAVDGERLTAHQPIAWLRS
*A* 0.00717

*Q* # return recorded soluble fraction (log2) for input HMSETEWGEIYRKVMAAGLIPARSVRERLLALPSIEPLLQAAEAAGSKGMLDETLLDSLLSKT
*A* 0.134

*Q* # return recorded soluble fraction (log2) for input HMTTGGAEELGRTERKIVEQVGRGLSNREIAQVLGLSEGTVRNYLSTILGKLGLRDRTQLAIWSVQTGFAA
*A* 0.197

*Q* # return recorded soluble fraction (log2) for input HMQTFGTMIAALRKEQGMTQLELAEKMGVTDKAVSKWERDLSFPDVNSLPKLAEIFHVSVDEL
*A* -0.229

*Q* # return recorded soluble fraction (log2) for input HMEVTLGLGSMVRLLGEPYLGSTGRVVELPDQAERFASGLTAKVAVVERHDGELIRVPVTNLLLME
*A* -0.191

*Q* # return recorded soluble fraction (log2) for input HMQVEYTRGELIQDLEGGKIVYAGISPSRETPTGEVNFILDSGLTRTLYVTDVSEIEQLLISYDIDPEVKK
*A* -0.0036

*Q* # return recorded soluble fraction (log2) for input HMNTPTLLLYGGKDHSVPEAGIRHLRAHLSANDRGEYRFYPNAPHLLLQSRQWQQVSQDISQWLAMT
*A* 0.141

*Q* # return recorded soluble fraction (log2) for input HMGVEVEVPNVKGKLVADAEYELGLAQLTPVRTDSAYNRNLPPGTVLEQLPASGSHVKEGREIYLTINST
*A* 0.264

*Q* # return recorded soluble fraction (log2) for input HMTTGEIIQRERTRLGLSQEKLAEQVGVSRQAVSKWELGDAVPDTDKLVPLARTLGISVDTLLD
*A* 0.0247
